// reported melting point for each item listed

Example results:
Query string: Returns the measured melting point for the input molecule. Input: O=C(O)C1(COc2ccc(Br)cc2)COC1
Result string: 122 to 124 °C

Query string: Returns the measured melting point for the input molecule. Input: CC(C)(C)OC(=O)NCCCc1ccccc1C=CC(=O)O
Result string: 122 to 126 °C

Query string: Returns the measured melting point for the input molecule. Input: N#CC1(c2ccc(C(F)(F)F)cc2)C2CC3CC(C2)CC1C3 (stereo unspecified)
Result string: 122 to 124 °C

Query string: Returns the measured melting point for the input molecule. Input: C/C(=C\c1ccncc1)c1ccc2c(c1)C(C)(C)CCC2(C)C
Result string: 84 to 85 °C

Query string: Returns the measured melting point for the input molecule. Input: COC(=O)c1scc(C)c1NC(=S)N1CCN(c2ncnc3cc(OC)c(OC)cc23)CC1
Result string: 113 to 116 °C

---
Query string: Returns the measured melting point for the input molecule. Input: COC(=O)[C@H]1[C@@H](NC(=O)OC(C)(C)C)C(=O)N1Cc1ccc(OC)cc1OC (relative stereo)
Result string: 134 to 135 °C

Query string: Returns the measured melting point for the input molecule. Input: O=C1C=C(Nc2ccccc2)C(=O)c2nccnc21
Result string: 203 to 205 °C

Query string: Returns the measured melting point for the input molecule. Input: Cc1ccc(Oc2ccncc2N)cn1
Result string: 74 to 79 °C

Query string: Returns the measured melting point for the input molecule. Input: CCOC(=O)c1nc2sc(Br)c([N+](=O)[O-])c2c(=O)[nH]1
Result string: 284 °C

Attribution: a melting point compilation (Tetko et al.; mined from patent text by program, amines drawn as free bases though some values may be those of a salt)
